test system: HT-29 (colon cancer cell line); test: Antiproliferative assay; type: cell-based, human; conditions: Homo sapiens, read-out: Antiproliferative Activity IC50 ± SEM, HT-29
quantity_name: IC50
Just so you know, I need the unit written after the number.

INSERT INTO assay_data (test_smiles, system_tested, quantity_name, reported_result) VALUES
  ('COc1ccc2[nH]c(=O)cc(-n3cc(COc4cccc5cccc(OCc6cn(-c7cc(=O)[nH]c8ccc(OC)cc78)nn6)c45)nn3)c2c1', 'HT-29 (colon cancer cell line)', 'IC50', '81 nM'),
  ('Cn1c(=O)cc(-n2cc(COc3cccc4cccc(OCc5cn(-c6cc(=O)n(C)c7ccccc67)nn5)c34)nn2)c2ccccc21', 'HT-29 (colon cancer cell line)', 'IC50', '137 nM'),
  ('Cc1ccc2[nH]c(=O)cc(-n3cc(COc4cccc5cccc(OCc6cn(-c7cc(=O)[nH]c8ccc(C)cc78)nn6)c45)nn3)c2c1', 'HT-29 (colon cancer cell line)', 'IC50', '48 nM'),
  ('O=c1cc(-n2cc(COc3cccc4cccc(OCc5cn(-c6cc(=O)[nH]c7ccccc67)nn5)c34)nn2)c2ccccc2[nH]1', 'HT-29 (colon cancer cell line)', 'IC50', '36 nM'),
  ('Cc1cccc2c(-n3cc(COc4cccc5c(OCc6cn(-c7cc(=O)[nH]c8c(C)cccc78)nn6)cccc45)nn3)cc(=O)[nH]c12', 'HT-29 (colon cancer cell line)', 'IC50', '57 nM');

If you can, please state the reported IC50 value of Cn1c(=O)cc(-n2cc(COc3cccc4c(OCc5cn(-c6cc(=O)n(C)c7ccccc67)nn5)cccc34)nn2)c2ccccc21 .
143 nM

Which IC50 is reported for this compound? O=c1cc(-n2cc(COc3cccc4c(OCc5cn(-c6cc(=O)[nH]c7ccccc67)nn5)cccc34)nn2)c2ccccc2[nH]1
65 nM

// IC50 lookup, key: COc1ccc2[nH]c(=O)cc(-n3cc(COc4cccc5c(OCc6cn(-c7cc(=O)[nH]c8ccc(OC)cc78)nn6)cccc45)nn3)c2c1
76 nM

Looking for the measured IC50 of Cc1ccc2[nH]c(=O)cc(-n3cc(COc4cccc5c(OCc6cn(-c7cc(=O)[nH]c8ccc(C)cc78)nn6)cccc45)nn3)c2c1 , can you help?
67 nM

----------
Quick reference: pIC50 of the listed items.
biological target: EGFR (Homo sapiens); experiment: EGFR inhibitory assay (EGFR-TK, DELFIA/time-resolved fluorometry)
Sequence (P00533 669-1210): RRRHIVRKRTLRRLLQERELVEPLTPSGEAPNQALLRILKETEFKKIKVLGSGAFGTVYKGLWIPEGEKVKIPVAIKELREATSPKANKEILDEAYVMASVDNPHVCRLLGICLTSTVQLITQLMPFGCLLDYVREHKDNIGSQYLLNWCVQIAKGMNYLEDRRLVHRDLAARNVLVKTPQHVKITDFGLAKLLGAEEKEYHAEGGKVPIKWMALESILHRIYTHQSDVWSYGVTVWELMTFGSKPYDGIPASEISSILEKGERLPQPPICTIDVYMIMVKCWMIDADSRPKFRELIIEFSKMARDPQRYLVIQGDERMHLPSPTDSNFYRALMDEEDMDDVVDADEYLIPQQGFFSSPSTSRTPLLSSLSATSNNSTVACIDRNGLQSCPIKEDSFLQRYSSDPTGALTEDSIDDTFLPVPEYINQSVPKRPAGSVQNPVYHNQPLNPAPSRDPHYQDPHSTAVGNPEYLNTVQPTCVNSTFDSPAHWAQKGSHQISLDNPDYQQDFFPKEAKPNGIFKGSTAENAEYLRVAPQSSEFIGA
Just the number, please; pIC50 means minus log10 of the concentration in mol/L.

Solved cases below.
INSERT INTO measurements (test_smiles, quantity_name, reported_result) VALUES
  ('Cc1ccc2[nH]c(=O)cc(-n3cc(COc4cccc5cccc(OCc6cn(-c7cc(=O)[nH]c8ccc(C)cc78)nn6)c45)nn3)c2c1', 'pIC50', 7.03),
  ('O=c1cc(-n2cc(COc3cccc4cccc(OCc5cn(-c6cc(=O)[nH]c7ccccc67)nn5)c34)nn2)c2ccccc2[nH]1', 'pIC50', 7.19);

As a next step, examine the molecule that follows.
Look up pIC50: Cc1cccc2c(-n3cc(COc4cccc5c(OCc6cn(-c7cc(=O)[nH]c8c(C)cccc78)nn6)cccc45)nn3)cc(=O)[nH]c12
7.01
